Attribute: TGI
Tested on: HCT-15 colon
assayProcedure: NCI tumour cell line growth inhibition, 48 h

// worked examples, TGI included
O=c1/c(=C/c2ccc3c(c2)OCO3)sc2nnc(Cc3ccccc3)n12
> 100 µM
Cc1ccc(-c2cc(C(Cl)Cl)on2)cc1
> 100 µM
COc1ccc2c(c1)c(-c1cc(-c3cn(C)c4ccc(OC)cc34)[nH]n1)cn2C
> 100 µM
C[C@@H](CCO)OC1OC(COC(=O)C(C)(C)C)C(OC(=O)C(C)(C)C)C(OC(=O)C(C)(C)C)C1OC(=O)C(C)(C)C (some centres undefined)
> 100 µM
CC(=O)[O-].O=[N+]([O-])c1ccc([O-])c(C=NCCN=Cc2cc([N+](=O)[O-])ccc2[O-])c1.[Mn+3]
> 100 µM

Recorded TGI of C#CCn1cc(C=C2C(=O)NC(=S)NC2=O)c2cc(Cl)ccc21 , please.
4.64 µM

Item O=C1c2cc3c(cc2-c2c1c1cc(F)c(F)cc1c(=O)n2C[C@H](O)CO)OCO3 has what recorded TGI?
1.74 µM

Record request: TGI value, item CCOP(=O)(COCCn1nc(Br)c(=O)[nH]c1=O)OCC
> 100 µM

What measured TGI goes with CCC1(c2ccc(OC)c(OC)c2)CCN2C(=O)C(O)CC21 (centres undefined) ?
> 100 µM

###

Test system: SK-MEL-28 melanoma
assayProcedure: NCI tumour cell line growth inhibition, 48 h
Overview of reported TGI across a group of molecules:

Below, each entry is followed by its recorded TGI result.
COc1ccc(C2NC(=S)NC3=C2COc2ccc(F)cc23)cc1OC (configuration not stated)
> 100 µM
COc1ccc(-c2cn(-c3cc(OC)c(OC)c(OC)c3)c(=O)n2-c2ccccc2)cc1
> 100 µM

Using the record for Nc1cc2nc(-c3ccccc3)cn2cn1 , report its TGI.
> 100 µM

Look at this molecule and give its reported TGI. O=C(O)CCSc1ncnc2nc[nH]c12
> 100 µM

What does the record list as TGI for Cc1cc(S(N)(=O)=O)c(S/C(=N\NS(=O)(=O)c2ccccc2)c2ccc(Cl)c(Cl)c2)cc1Cl ?
> 100 µM

###

System: PC-3 prostate
assayProcedure: NCI tumour cell line growth inhibition, 48 h
reportedProperty: TGI (µM)
Enter your answer as a number in µM; do not include the unit.

O=C(Nc1nc2ccc(F)cc2s1)c1cccnc1Nc1ccc(Cl)cc1Cl
9.45
CCCCCCCCCCCCCCCCCCNC(=O)[C@H]1CSC(c2ccc(F)c(OC)c2)N1 (stereo not given in full)
12
CN(C)CCN1C(=O)N(CCN(C)C)c2c3cc(O)ccc3nc3c([N+](=O)[O-])ccc1c23
75

Name the reported TGI value associated with the compound O=C1c2c(Br)sc(Br)c2[C@H]2OC(=S)N[C@@H]12
14

###

Test system: SF-295 CNS
assayProcedure: NCI tumour cell line growth inhibition, 48 h
reportedProperty: TGI

Solved entries:
COC(=O)c1ccc2cc(O)ccc2c1
> 100 µM
CN1C(=O)CC2(C)c3cc(C=O)ccc3N(C)C12 (stereo unspecified)
> 100 µM
N#Cc1ccnc(C(=O)N2CCCC2C(=O)O)c1 (stereo unspecified)
> 100 µM
C=C1c2ccccc2N(S(=O)(=O)c2ccc(C)cc2)C12CCCCC2
> 100 µM
O=C(Nc1nc2ccc(F)cc2s1)c1cccnc1Nc1ccc(Cl)cc1Cl
8.02 µM

Give the measured TGI of C=C[C@@]1(C)CC(=O)[C@]2(O)[C@@]3(C)[C@@H](O)CCC(C)(C)[C@@H]3[C@H](O)[C@@H](OC(C)=O)[C@@]2(C)O1 .
> 100 µM

Fill blank: measured TGI of the molecule NC(=O)c1ncn(C2OC(CO)C(O)C2O)c1NC(=S)NC(=O)c1ccccc1 (stereo unspecified) is ____.
> 100 µM

Param item = CC(=O)N=S(NC(=O)c1ccc(C)cc1)C(Cl)(Cl)Cl (stereo unspecified) ; retrieve measured TGI.
> 100 µM

Bench note: what TGI did O=C(O)C(Cc1c[nH]c2ccccc12)N1C(=O)c2ccccc2C1=O (stereo unspecified) show?
> 100 µM

// TGI lookup, key: C(/C=C/N1CCCC1)=C\c1nc(N2CCCC2)c2ccccc2n1
35.4 µM

Endpoint output: TGI of CSc1ncnc2c1cnn2Cc1cn(COCC(O)CO)nn1 (stereo unspecified) . Value?
> 100 µM

###

We begin with a simple list: items and their reported TGI.
Tested on: MCF7 breast
assayProcedure: NCI tumour cell line growth inhibition, 48 h

Completed entries (count: 4):
COc1ccc(C(=O)/C=C/c2ccc(OCCCCCCCCCCOc3ccc(/C=C/C(=O)c4ccc(OC)c(OC)c4)cc3)cc2)c(OC)c1
> 100 µM
CCOC(=O)OC1(c2ccccc2)CCN(C)CC1
> 100 µM
CC1=[N+]([O-])C2(CCCC2)N(O)C1(C)C
> 100 µM
Cn1c(=O)c2[nH]c(Nc3cccc(Cl)c3)nc2n(C)c1=O
> 10 µM

Item CC1=CC(O)CC(C)(C)C1/C=C/C(C)=C/C=C/C(C)=C/C=C/C=C(C)/C=C/C=C(C)/C=C/C1=C(C)CC(O)CC1(C)C (stereo not given) with MCF7 breast - TGI?
77.7 µM

###

System: HCT-15 colon
assayProcedure: NCI tumour cell line growth inhibition, 48 h; in the data active = GI50 below about 0.43 µM; inactive = the rest
Choose the fitting class; nothing outside active, inactive is accepted.

Cc1ccc(NCCNCC(O)CO)c2c(=O)c3ccccc3sc12 (stereo not given)
inactive
CC(=O)c1c(Nc2ccc(F)c(F)c2F)[nH]c2c(F)cc(F)cc2c1=O
active
C=C1C(=O)C23CC1CCC2C12CO[C@@]3(O)[C@@H](O)C1C(C)(C)C=CC2=O (stereo not given in full)
inactive
CCOC(=O)C(=Cc1c(-c2ccccc2)[nH]c2ccccc12)C(=O)OCC
inactive
NC1(C(=O)O)CSSC1
inactive
O=C1c2cc3c(cc2-c2c1c1cc(F)c(F)cc1c(=O)n2C[C@H](O)CO)OCO3
active
COc1ccc(-c2nn(-c3cccc(Cl)c3)cc2/C=C2\C(=N)N(c3ccccc3)N=C2N)cc1
inactive
NC(=O)c1c(NC(=O)c2cccc(C(F)(F)F)c2)sc2c1CCC(=O)C2
active
Cc1cc(S(N)(=O)=O)c(S/C(=N\NS(=O)(=O)c2ccccc2)c2ccc(Cl)c(Cl)c2)cc1Cl
inactive

As a next step, examine the compound that follows.
Outcome? NCCn1c2c(c3ccccc3c1=O)C(=O)c1ccccc1-2
active

###

System: U251 CNS
GI50 values for the molecules below.

Cc1cc(C(=O)Nc2cc(Nc3ncccc3-c3ncnc4nc[nH]c34)ccc2F)cc(C(C)(C)C#N)c1
3.74 µM

Next:
# value lookup — system U251 CNS, readout GI50, item Cc1ccc(S(=O)c2ccc([N+](=O)[O-])c3nonc23)cc1 (stereo not given)
16 µM

###

System: HCT-116 colon
assayProcedure: NCI tumour cell line growth inhibition, 48 h
Below, each entry is listed with its recorded TGI.

Below, 10 molecules whose answers are already recorded.
NC(=O)c1c(NC(=O)c2cccc(C(F)(F)F)c2)sc2c1CCC(=O)C2
> 32.2 µM
O=C1Nc2ccc(Br)cc2C1=Nc1ccc(Cl)cc1
62.9 µM
O=C1OC(c2ccc(Cl)c3ccccc23)c2ccccc21 (stereo unspecified)
> 100 µM
Cc1ccc(S(=O)c2ccc([N+](=O)[O-])c3nonc23)cc1 (stereo unspecified)
3.39 µM
COc1cc2c3c(c1OC)/C(=N/OS(=O)(=O)c1ccc(C)cc1)CC3N(S(=O)(=O)c1ccc(C)cc1)CC2 (stereo unspecified)
> 100 µM
CC(C)(C)C#CI1OC(=O)c2ccccc21
6.82 µM
O=C(O)C12C3C4(C(=O)O)C1C1(C(=O)O)C2C3(C(=O)O)C41 (stereo unspecified)
> 100 µM
Brc1ccc(/C(N=N/C(=N\Sc2ccccc2)c2ccc(Br)cc2)=N/Sc2ccccc2)cc1
> 100 µM
c1cc2ccc1C1NCCCN1CCN1CCCNC1c1ccc(cc1)C1NCCCN1CCN1CCCNC21 (stereo unspecified)
> 100 µM
O=c1ccn([C@@H]2C=C(CO)[C@@H](O)[C@H]2O)c(=O)[nH]1
> 625 µM

// returns reported TGI for input OCCN(CCO)c1ncnc2c1sc(=S)n2-c1ccccc1
> 100 µM

Requested field: TGI. Item: Fc1ccc(-c2cc(-c3cn[nH]c3-c3ccccn3)ccn2)cc1
> 25 µM

###

Tested on: SNB-19 CNS
assayProcedure: NCI tumour cell line growth inhibition, 48 h
reportedProperty: TGI

Some solved entries appear below for comparison.
CC12O[Te]34OC1(C)C(C)(O3)C2(C)O4
37.5 µM
COc1cc2c3cc1Oc1cc(ccc1O)C[C@@H]1c4c(cc(OC)c(O)c4Oc4ccc(cc4)C[C@@H]3[N+](C)(C)CC2)CC[N+]1(C)C
> 100 µM
O=C(O[C@@H](/C=C/c1ccccc1)P1(=O)N(Cc2ccccc2)[C@@H]2CCCC[C@H]2N1Cc1ccccc1)c1ccccc1
> 100 µM

Can you share its TGI? I mean this compound: C[C@@H](CCO)OC1OC(COC(=O)C(C)(C)C)C(OC(=O)C(C)(C)C)C(OC(=O)C(C)(C)C)C1OC(=O)C(C)(C)C (some centres undefined)
> 100 µM

Could you share which TGI value was measured for NC(=O)c1ncn(C2OC(CO)C(O)C2O)c1NC(=S)NC(=O)c1ccccc1 (centres undefined) ?
> 100 µM

Look up TGI for this compound: Nc1ccc2c(SCC(=O)Nc3ccccc3-c3ccccc3NC(=O)CSc3c4ccccc4nc4cc(N)ccc34)c3ccccc3nc2c1
44.2 µM
